Measured values drawn from patent US6564152B2 for this set.

Collected pIC50 values appear next to each entry.
# EXPERIMENTAL_TARGET: recombinant CYP2D6 (Homo sapiens, UniProt P10635)
# Sequence (P10635 whole entry): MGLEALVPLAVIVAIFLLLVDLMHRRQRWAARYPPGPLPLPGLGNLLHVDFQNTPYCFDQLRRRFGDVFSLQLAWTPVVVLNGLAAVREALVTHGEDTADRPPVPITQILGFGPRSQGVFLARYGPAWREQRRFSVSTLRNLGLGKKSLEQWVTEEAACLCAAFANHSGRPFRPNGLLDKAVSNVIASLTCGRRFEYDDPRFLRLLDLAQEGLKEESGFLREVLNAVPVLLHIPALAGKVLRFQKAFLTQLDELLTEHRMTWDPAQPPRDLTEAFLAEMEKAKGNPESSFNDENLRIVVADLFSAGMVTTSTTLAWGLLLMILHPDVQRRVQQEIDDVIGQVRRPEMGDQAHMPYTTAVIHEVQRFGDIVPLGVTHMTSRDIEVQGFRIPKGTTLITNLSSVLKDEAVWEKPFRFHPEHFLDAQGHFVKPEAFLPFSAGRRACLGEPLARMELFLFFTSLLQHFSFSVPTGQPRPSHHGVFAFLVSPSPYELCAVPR
# METHOD_SUMMARY: Bufuralol 1'-hydroxylase assay (CYP2D6) IC50 determination
Scale: pIC50 equals -log10([C]), with [C] in mol/L.

In [3]: df
Out[3]:
                                   molecule  quantitative_readout
0  CC(C)Oc1ccc(OC(F)(F)F)cc1CN[C@H]1CCCN[C@H]1c1ccccc1 [XIX]                  7.33

Q: # get_value(readout='pIC50', item= Clc1ccccc1CN[C@@H]1C2CCN(CC2)[C@@H]1C(c1ccccc1)c1ccccc1 [I] )
Result: 7.23

----------
# EXPERIMENTAL_TARGET: recombinant CYP2D6 (Homo sapiens)
# METHOD_SUMMARY: Bufuralol 1'-hydroxylase assay (CYP2D6) IC50 determination
# CONDITION_SET: CYP2D6 IC50, recombinant CYP2D6 0.1 mg/ml, bufuralol 3.4 μM, 37° C., pH 7.4; Table I
RESULT_TYPE: pIC50
Scale: pIC50 equals -log10([C]), with [C] in mol/L.

>>> df
                                   compound  quantitative_readout
0  COc1ccccc1[C@H]1CC[C@]2(CCCN[C@@H]2c2ccccc2)NC1 [Compound XX]                  7.68

Q: # get_value(readout='pIC50', item= O=c1[nH]nc(CN2CCO[C@H](OCc3cc(C(F)(F)F)cc(C(F)(F)F)c3)[C@@H]2c2ccccc2)[nH]1 [Compound XXIV] )
Result: 5.15

Q: # get_value(readout='pIC50', item= COc1ccccc1CN[C@@H]1C2CC3CCCC(C2)N3[C@@H]1C(c1ccccc1)c1ccccc1 [VIII] )
Result: 7.66

Q: # get_value(readout='pIC50', item= COc1ccccc1CN[C@@H]1CCCC[C@@H]1C(c1ccccc1)c1ccccc1 [II] )
Result: 7.80

Q: # get_value(readout='pIC50', item= Clc1ccccc1CN[C@@H]1C2C3CCCC2CN(C3)[C@@H]1C(c1ccccc1)c1ccccc1 [XI] )
Result: 7.80

Q: # get_value(readout='pIC50', item= COc1ccc(-n2nnnc2C(F)(F)F)cc1CN[C@H]1CCCN[C@H]1c1ccccc1 [XXVI] )
Result: 6.28

Q: # get_value(readout='pIC50', item= COc1ccccc1CN[C@@H]1C2C3CCCC2CN(C3)[C@@H]1C(c1ccccc1)c1ccccc1 [XII] )
Result: 8.17

Q: # get_value(readout='pIC50', item= CC(C)Oc1ccccc1CN[C@H]1CCCN[C@H]1c1ccccc1 [XIV] )
Result: 7.42
